Reference source: patent US6734187B1

Molecular target: Type IV Phosphodiesterase (PDE IV)
Test: Effect on enzymatic activity of type IV phosphodiesterase (PDE IV)
Settings: crude enzyme from cytoplasmic fraction of human monocyte-like cell strain U937; 3H-cAMP substrate, 30° C., 15 minutes; read-out: PDE IV Inhibitory Activity: IC50
Method: PDE IV inhibitory activity of the compounds of the present invention was examined. […] Adv. Effect on Enzymatic Activity of Type IV Phosphodiesterase (PDE IV) After a test compound was added, the reaction mixture was incubated at 30° C. for 15 minutes, and then added with the substrate.
Classify: Met when IC50 is strictly less than 0.8 nM; Not met when IC50 is not.

Query :: For this compound, is IC50 lower than 0.8 nM? COc1ccc(Cn2c(C)nc3c(C)nc(OCc4cc(C)nn4C)nc32)cc1OC1CCCC1
Result :: Met

Query :: For this compound, is IC50 lower than 0.8 nM? COc1ccc(Cn2cnc3c(C)nc(NCc4ccncc4)nc32)cc1OC1CCCC1
Result :: Not met

Query :: For this compound, is IC50 lower than 0.8 nM? COc1ccc(Cn2c(C)nc3c(C)nc(NCc4cccnn4)nc32)cc1OC1CCCC1
Result :: Not met

Query :: For this compound, is IC50 lower than 0.8 nM? CCNc1nc(OCCCc2ccncc2)nc2c1ncn2Cc1ccc(OC)c(OC2CCCC2)c1
Result :: Met

Query :: For this compound, is IC50 lower than 0.8 nM? COc1ccc(Cn2cnc3c(N(C)C)nc(OCc4ccoc4)nc32)cc1OC1CCCC1
Result :: Met

Query :: For this compound, is IC50 lower than 0.8 nM? COc1ccc(Cn2c(C)nc3cnc(NCc4ccc(OCC(F)(F)F)nc4)nc32)cc1OC1CCCC1
Result :: Not met

Query :: For this compound, is IC50 lower than 0.8 nM? COc1ccc(Cn2cnc3ncnc(OCc4cccnc4)c32)cc1OC1CCCC1
Result :: Not met

###

For each of the compounds below, state its pIC50.
Molecular target: Type IV Phosphodiesterase (PDE IV)
Assay: Effect on enzymatic activity of type IV phosphodiesterase (PDE IV)
Conditions: crude enzyme from cytoplasmic fraction of human monocyte-like cell strain U937; 3H-cAMP substrate, 30° C., 15 minutes; read-out: PDE IV Inhibitory Activity: IC50
Field pIC50 (float): negative decimal logarithm of the concentration in molar.

Query :: Tell me pIC50 of CNc1nc(OCCCc2ccncc2)nc2c1ncn2Cc1ccc(OC)c(OC2CCCC2)c1 when tested on Type IV Phosphodiesterase (PDE IV).
Result :: 9.12

Query :: Tell me pIC50 of COc1ccc(Cn2cnc3c(N)nc(OCCCc4ccncc4)nc32)cc1OC1CCCC1 when tested on Type IV Phosphodiesterase (PDE IV).
Result :: 8.85

Query :: Tell me pIC50 of CCCNc1nc(OCCCc2ccncc2)nc2c1ncn2Cc1ccc(OC)c(OC2CCCC2)c1 when tested on Type IV Phosphodiesterase (PDE IV).
Result :: 9.36

Query :: Tell me pIC50 of COc1ccc(Cn2cnc3ncnc(Oc4cccnc4)c32)cc1OC1CCCC1 when tested on Type IV Phosphodiesterase (PDE IV).
Result :: 7.27

Query :: Tell me pIC50 of COc1ccc(Cn2c(C)nc3cnc(OCCCc4ccncc4)nc32)cc1OC1CCCC1 when tested on Type IV Phosphodiesterase (PDE IV).
Result :: 8.89

Query :: Tell me pIC50 of COc1ccc(Cn2c(C)nc3cnc(OCc4cccnc4)nc32)cc1OC1CCCC1 when tested on Type IV Phosphodiesterase (PDE IV).
Result :: 8.59

Query :: Tell me pIC50 of COc1ccc(Cn2c(C)nc3c(C)nc(OCc4cc[n+]([O-])cc4)nc32)cc1OC1CCCC1 when tested on Type IV Phosphodiesterase (PDE IV).
Result :: 7.82

Query :: Tell me pIC50 of CCNc1nc(OCCCc2cc[n+]([O-])cc2)nc2c1ncn2Cc1ccc(OC)c(OC2CCCC2)c1 when tested on Type IV Phosphodiesterase (PDE IV).
Result :: 7.82

Query :: Tell me pIC50 of COc1ccc(Cn2cnc3cnc(NCc4cccs4)nc32)cc1OC1CCCC1 when tested on Type IV Phosphodiesterase (PDE IV).
Result :: 9.33

Query :: Tell me pIC50 of COc1ccc(Cn2c(C)nc3c(C)nc(OCc4ccncc4)nc32)cc1OC1CCCC1 when tested on Type IV Phosphodiesterase (PDE IV).
Result :: 8.77

Query :: Tell me pIC50 of COc1ccc(Cn2cnc3cnc(OCCCc4ccncc4)nc32)cc1OC1CCOC1 (centres unmarked) when tested on Type IV Phosphodiesterase (PDE IV).
Result :: 8.35

Query :: Tell me pIC50 of COc1ccc(Cn2c(C)nc3c(C)nc(SCc4cccnc4)nc32)cc1OC1CCCC1 when tested on Type IV Phosphodiesterase (PDE IV).
Result :: 9.19

Query :: Tell me pIC50 of COc1ccc(Cn2cnc3c(N(C)C)nc(NCc4cccnc4)nc32)cc1OC1CCCC1 when tested on Type IV Phosphodiesterase (PDE IV).
Result :: 8.96

Query :: Tell me pIC50 of COc1ccc(Cn2cnc3c(OCc4cccnc4)ncnc32)cc1OC1CCCC1 when tested on Type IV Phosphodiesterase (PDE IV).
Result :: 8.05

Query :: Tell me pIC50 of COc1ccc(Cn2c(C)nc3cnc(NCc4cccnc4)nc32)cc1OC1CCCC1 when tested on Type IV Phosphodiesterase (PDE IV).
Result :: 9.00

Query :: Tell me pIC50 of CCNc1nc(Cl)nc2c1ncn2Cc1ccc(OC)c(OC2CCCC2)c1 when tested on Type IV Phosphodiesterase (PDE IV).
Result :: 7.39

Query :: Tell me pIC50 of CCNc1nc(OCc2cccnn2)nc2c1ncn2Cc1ccc(OC)c(OC2CCCC2)c1 when tested on Type IV Phosphodiesterase (PDE IV).
Result :: 8.42
